- target-or-test-system: UniProt:Q9UPY5
- Sequence (Q9UPY5 whole entry): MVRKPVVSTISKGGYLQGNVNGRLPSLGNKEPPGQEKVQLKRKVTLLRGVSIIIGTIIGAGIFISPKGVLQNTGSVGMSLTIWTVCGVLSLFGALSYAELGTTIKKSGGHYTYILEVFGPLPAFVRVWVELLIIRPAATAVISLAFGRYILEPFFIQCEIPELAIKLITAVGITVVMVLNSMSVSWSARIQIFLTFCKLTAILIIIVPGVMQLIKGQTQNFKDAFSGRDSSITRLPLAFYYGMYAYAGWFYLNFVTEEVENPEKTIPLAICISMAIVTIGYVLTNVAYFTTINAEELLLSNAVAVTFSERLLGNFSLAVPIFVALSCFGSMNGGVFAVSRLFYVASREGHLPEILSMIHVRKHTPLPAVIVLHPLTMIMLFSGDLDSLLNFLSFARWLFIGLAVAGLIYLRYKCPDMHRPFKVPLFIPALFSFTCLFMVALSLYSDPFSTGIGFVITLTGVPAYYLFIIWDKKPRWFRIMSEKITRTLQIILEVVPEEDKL
- Sequence (P08195 102-630 partner): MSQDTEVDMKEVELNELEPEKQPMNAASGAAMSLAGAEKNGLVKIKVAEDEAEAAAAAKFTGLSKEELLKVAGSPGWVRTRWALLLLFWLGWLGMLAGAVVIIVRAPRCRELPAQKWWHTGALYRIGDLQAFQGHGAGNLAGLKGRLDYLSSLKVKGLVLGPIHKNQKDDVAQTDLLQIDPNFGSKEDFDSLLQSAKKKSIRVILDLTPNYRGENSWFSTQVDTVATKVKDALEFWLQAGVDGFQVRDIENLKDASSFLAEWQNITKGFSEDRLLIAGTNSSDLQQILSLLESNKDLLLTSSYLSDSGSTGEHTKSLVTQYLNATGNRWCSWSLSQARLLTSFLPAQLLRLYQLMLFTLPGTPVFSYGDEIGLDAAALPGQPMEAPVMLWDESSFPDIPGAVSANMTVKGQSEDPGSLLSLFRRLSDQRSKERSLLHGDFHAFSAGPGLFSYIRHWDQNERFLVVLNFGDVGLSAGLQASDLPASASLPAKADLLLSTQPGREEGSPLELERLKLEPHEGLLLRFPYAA
- protocol-notes: [^14C]L-Cystine uptake assay
- Assay type: cell-based
- Design: endogenous in cells; host or cells: H4 cells
- study-conditions: H4 cells, sodium-free HEPES buffer, 0.5 μM L-[14C]Cystine and 4.5 μM L-Cystine, 1 hour at 37° C.; read-out: pIC50 [^14C] L-Cystine uptake assay (converted)
Can you tell me IC50 for the items I'm about to list?

Query block: Find the recorded IC50 belonging to Cc1cc2c(c(F)n1)-c1cncc(F)c1CC(=O)N2CC(=O)Nc1ccc(C(F)(F)F)cc1 and report it.
Result block: 15.8 to 39.8 nM

Query block: Consider the compound Cc1cc2c(c(C#N)n1)-c1ccccc1CC(=O)N2CC(=O)Nc1ccc(C(F)(F)F)cc1 and give its measured IC50.
Result block: < 15.8 nM

Query block: Quick one: IC50 for Cc1cc2c(cn1)N(CC(=O)Nc1ccc(C(F)(F)F)cc1)C(=O)Cc1ccccc1-2 ?
Result block: 100 to 501 nM

Query block: Fill blank: measured IC50 of the compound Cc1cc2c(c(F)n1)-c1cccnc1[C@@H](C)C(=O)N2CC(=O)Nc1ccc(C2(F)CC2)cc1 is ____.
Result block: < 15.8 nM

Cited source for all entries: patent US20260217708A1
